- assayExplanation: Mapping a therapeutic window (ED50 versus MTD)
- Assay type: in vivo
- assayContext: mouse, in vivo; QD; own data compiled with mined literature data
measuredEndpoint: MTD (mg/kg)
Return type: number; implicit unit mg/kg.

Enquiry: Tell me MTD reported for CC1(C)CCC(C)(C)c2cc(Cn3cccn3)c(/C=C/c3ccc(C(=O)O)cc3)cc21 [Palovarotene, palovarotene, reference compound]
Return: 0.285

---

- studySystem: CYP26B1 (Homo sapiens, UniProt Q9NR63)
- Sequence (Q9NR63 1-512): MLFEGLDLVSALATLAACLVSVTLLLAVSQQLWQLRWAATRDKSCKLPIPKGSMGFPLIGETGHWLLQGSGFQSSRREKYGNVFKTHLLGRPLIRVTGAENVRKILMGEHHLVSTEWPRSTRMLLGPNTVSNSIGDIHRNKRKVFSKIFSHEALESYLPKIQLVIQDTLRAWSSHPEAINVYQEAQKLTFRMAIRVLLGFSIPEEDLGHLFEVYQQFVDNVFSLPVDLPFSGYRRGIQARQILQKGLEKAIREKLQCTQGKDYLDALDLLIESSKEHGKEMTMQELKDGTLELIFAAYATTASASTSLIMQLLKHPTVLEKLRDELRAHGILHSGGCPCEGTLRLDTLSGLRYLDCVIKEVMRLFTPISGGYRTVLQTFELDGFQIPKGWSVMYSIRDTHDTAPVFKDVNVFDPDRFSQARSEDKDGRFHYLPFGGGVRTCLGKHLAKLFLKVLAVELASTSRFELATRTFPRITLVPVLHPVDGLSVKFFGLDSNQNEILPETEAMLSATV
- assayExplanation: U2OS cell-based inhibitor assay (endogenous CYP26B1)
- Parameters: This assay used a human cell type endogenously expressing the CYP26B1 enzyme; endogenous in cells; host or cells: U2OS, pre-treated with 1 µM RA for 24 hours
- assayContext: U2OS cells pre-treated with 1 µM RA for 24 hours; Figure 4
measuredEndpoint: IC50 (nM)
Return type: number; implicit unit nM.

Enquiry: Retrieve IC50 on CYP26B1 (Homo sapiens, UniProt Q9NR63); query `CC(C)(C)c1cccc(-c2cc3cc(/C=C/C(=O)O)ccc3[nH]2)c1`
Return: 1.9
